meta.source: ChEMBL document CHEMBL1806466

Assay: Cytotoxic activity against drug-resistant […]-deficient human NCI/ADR cells expressing Pgp after 48 hrs by sulforhodamine B assay
Assay type: functional, cell-based
Conditions: NCI/ADR-RES
Quick reference for IC50 among some compounds

compound	IC50 [µM]
COc1cccc(OC)c1CCc1cn(Cc2ccccc2)c2nc(N)nc(C)c12	12
CC[C@]1(O)C[C@H]2CN(CCc3c([nH]c4ccccc34)[C@@](C(=O)OC)(c3cc4c(cc3OC)N(C=O)[C@H]3[C@@](O)(C(=O)OC)[C@H](OC(C)=O)[C@]5(CC)C=CCN6CC[C@]43[C@@H]65)C2)C1 [VINCRISTINE]	100
COc1cc(CCc2cn(Cc3ccccc3)c3nc(N)nc(C)c23)c(OC)c(OC)c1OC	7
COc1cc(CCc2cn(Cc3ccccc3)c3nc(N)nc(C)c23)c(OC)c(OC)c1	33
Cc1nc(N)nc2c1c(CCc1ccccc1Cl)cn2Cc1ccccc1	11
COc1ccc(CCc2cn(Cc3ccccc3)c3nc(N)nc(C)c23)c(OC)c1	6
COc1ccccc1CCc1cn(Cc2ccccc2)c2nc(N)nc(C)c12	2.7
